system: filter-sterile supernatant of Rhodanobacter R179 (secreted peptidase(s)); assay: Peptide quantification by mass spectrometry after incubation in cell-free supernatant of Rhodanobacter R179; type: in vitro ADME; settings: axenic XVM2 medium control, incubation 1h, peptide relative to axenic, replicate 2
Where no end group is shown, it is not given here.
Experimental endpoint: percent_rel_axenic (%)
Your answer should be a plain number; it is taken to be in %.

Here's what some known entries look like.
> print(dat)
                          substance                     target.or.test.system  experimental.endpoint  meas.value
1  ATKVKAKQRGKEKVSSGRPGQHN [AtPep1]  filter-sterile supernatant of Rhodanobacter R179 (secreted peptidase(s))     percent_rel_axenic     103.993
2    QRLSTGSRINSAKDDAAGLQIA [flg22]  filter-sterile supernatant of Rhodanobacter R179 (secreted peptidase(s))     percent_rel_axenic     75.7327
3     Ac-SKEKFERTKPHVNVGTIG [elf18]  filter-sterile supernatant of Rhodanobacter R179 (secreted peptidase(s))     percent_rel_axenic     106.053

Recorded percent_rel_axenic for D-Y(SO3H)-GDPSANPKHDPGV-Hyp-Hyp-S [PSY1, root-growth-promoting sulfated PSY1 peptide] on filter-sterile supernatant of Rhodanobacter R179 (secreted peptidase(s)) was 91.2772
